So I've got a bunch of binders here, and I need their Emax (MFI) values.
# Assay Target: T1, human CD40 with C-terminal Flag tag on HEK293 cells (human, UniProt P25942 21-277)
# T1 construct: whole, on cells; also called HEK293 cells highly expressing CD40; cell strain highly expressing human CD40
# T1 sequence (P25942 other isoform, or with tags, fused parts or gaps): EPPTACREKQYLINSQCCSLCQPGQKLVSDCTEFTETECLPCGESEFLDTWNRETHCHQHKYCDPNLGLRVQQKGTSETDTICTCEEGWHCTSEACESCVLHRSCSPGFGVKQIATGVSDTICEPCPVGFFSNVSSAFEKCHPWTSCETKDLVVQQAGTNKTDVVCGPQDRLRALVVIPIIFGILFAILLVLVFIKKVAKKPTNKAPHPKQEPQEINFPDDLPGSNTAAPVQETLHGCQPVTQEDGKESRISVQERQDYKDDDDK
# Test Protocol: FACS, HEK293 cells transiently expressing human CD40

| Binder | Emax (MFI) |
| --- | --- |
| A12V3-Fc (Fc fusion) EVQVVESGGGLVQPGGSLRLSCAASGFTFSNYGMKWVRQAPGKGLEWVSTILSQGGSTYYADSVKGRFTISRDNSKNTLYLQMNSLRAEDTAVYYCLRVDWSDYSPRGQGTQVTVSSEPKSADKTHTCPPCPAPELLGGPSVFLFPPKPKDTLMISRTPEVTCVVVDVEHEDPEVKFNWYVDGVEVHNAKTKPREEQYNSTYRVVSVLTVLHQDWLNGKEYKCKVSSKAFPAPIEKTISKAKGQPREPQVYTLPPSRDELTKNQVSLTCLVKGFYPSDIAVEWESNGQPENNYKTTPPVLDSDGSFFLYSKLTVDKSRWQQGNVFSCSVMHEALHNHYTQKSLSLSPGK | 16900 MFI |

Request: # input binder: A12V1-Fc (Fc fusion) EVQLVESGGGLVQPGGSLRLSCAASGFTFSNYGMKWVRQAPGKGLEWVSTILSQGGSTYYADSVKGRFTISRDNAKNSLYLQMNSLRAEDTALYYCARVDWSDYSPRGQGTMVTVSSEPKSADKTHTCPPCPAPELLGGPSVFLFPPKPKDTLMISRTPEVTCVVVDVEHEDPEVKFNWYVDGVEVHNAKTKPREEQYNSTYRVVSVLTVLHQDWLNGKEYKCKVSSKAFPAPIEKTISKAKGQPREPQVYTLPPSRDELTKNQVSLTCLVKGFYPSDIAVEWESNGQPENNYKTTPPVLDSDGSFFLYSKLTVDKSRWQQGNVFSCSVMHEALHNHYTQKSLSLSPGK ; wanted: its Emax (MFI)
Result: 16600 MFI

// data source = patent US20250051467A1
